Assay: In vitro protein binding assay, mouse plasma
MEASURED_QUANTITY: fraction unbound
API note: the answer field is a bare number with no unit suffix.

Ask | // query fraction unbound value for entry CNC(=O)c1ccc(-c2cnc3ncc(Cc4ccc5ncccc5c4)n3n2)cc1F
Reply | 0.0502

* * *

Tested on: murine TFG-MET tumor cells
Experiment: cells
Conditions: Mus musculus, read-out: EC50 (nM) Total
MEASURED_QUANTITY: EC50 (nM)
All answers are understood in nM, so give the number only.

Ask | What measured EC50 goes with C[C@@H](Oc1cc(-c2cnn(C3CCNCC3)c2)cnc1N)c1c(Cl)ccc(F)c1Cl [Crizotinib] ?
Reply | 124
